# tested.target: T1, full-length PcrV.6xhis (Pseudomonas aeruginosa)
# T1 construct: Recombinant full-length V-tip protein of the type 3 secretion system, His-tagged; also called full-length PcrV with a C-terminal hexahistidine tag
# test.name: SPR (Biacore T200), mAb captured via anti-human Fc, PcrV injected, 25 C
The following binders are shown together with reported 90 nM Ag Bound (RU) values.
Use RU as the unit, but write only the number.

Some entries whose results are on file:
>>> numeric_result("H1H29336P (antibody, V domains shown) VH: EVQLVESGGGLVQPGGSLRLSCAASGFTFSSYAMTWVRQAPGKGLEWVSSIRGSGYSSDYADSVKGRFTISRDNSENTVYLQMNRLRAEDTAVYYCAKERSVTAYYYYGMDVWGQGTTVTVSS VL: DIQLTQSPSFLSASVGDRVTITCWASQDISSFLTWYQQKPGIAPKLLIYTASTLQSGVPSRFSGSGSGTEFTLTISSLQPEDFATYYCQQLKSYPLTFGGGTKVEIKR")
102
>>> numeric_result("REGN3977 (antibody, V domains shown, also called Control III; REGN3977-Control III) VH: QVQLKQSGPGLVQPSQSLSITCTVSGFSLTSYGVHWVRQSPGKGLEWLGVIWSGGDTDYNAAFISRLSISKDNSKSQLFFKMNSLRATDTAIYYCARNRGDIYYDFTYAMDYWGQGTSVTVSS VL: DIQMTQSPASLSASVGETVTITCRASGNIQNYLAWYQQTQGKSPQLLVYSAKTLADGVPSRFSGSGSGTQYSLKINSLQPEDFGSYYCQHFWSTPYTFGGGTKLEIKR")
146

May I ask what 90 nM Ag Bound (RU) has been recorded for H1H29339P (antibody, V domains shown) VH: EVQLVESGGDLVQPGGSLRLSCAASGFTFNTYAMNWVRQAPGKGLEWVAVIGGSGYSTNYADSVKGRFTISRDNSKNTLYLQMNSLRTEDTAVYYCAKEGNIVALYWYFDLWGRGTLVTVSS VL: DIQMTQSPSSLSASVGDRVTITCRASQSISRYLNWYQQKPGKAPKLLIYAASSLQGGVPSKFSGSGSGTDFTLTISSLQPEDFATYYCQQSSTTPLTFGGGTKVEIKR ?
140
